target: fusion glycoprotein (F) of the RSV used in the GFP-based neutralization assay of Table 23 (respiratory syncytial virus); assay: cell-based or functional assay
QUANTITY_KIND: RSV IC 50 (ng/mL), GFP-based in vitro neutralization
One number for each entry, in ng/mL.

Item MPH12-v35 (VH-FRGL-D62E/VL-FRGL-D25S) (antibody, V domains shown) VH: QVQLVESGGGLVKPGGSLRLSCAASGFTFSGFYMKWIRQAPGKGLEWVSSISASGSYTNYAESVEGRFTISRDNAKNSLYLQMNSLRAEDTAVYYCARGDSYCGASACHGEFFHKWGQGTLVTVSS VL: QSVLTQPPSVSGAPGQRVTISCTGSSSNIGADFDVHWYQQLPGTAPKLLIYGNINRPSGVPDRFSGSKSGTSASLAITGLQAEDEADYYCQSYDRSLHYVFGTGTKVTVL has what recorded RSV IC 50 (ng/mL), GFP-based in vitro neutralization?
57.5
